These data points were gathered from patent US11434240B2.

Test system: JAK2-pSTAT5 (GM-CSF induced pSTAT5)
procedure summary: GM-CSF induced pSTAT5 in human PBMC
Assay type: cell-based
condition notes: 20 min, 5 ng/mL GM-CSF for 20 minutes, legend words it as IC50
pEC50: −log10 of the molar value.
quantity measured: pEC50

Input: Lab note: JAK2-pSTAT5 (GM-CSF induced pSTAT5) assay, enter pEC50 for `CN1CCN(c2ccn(-c3cc(-c4c(F)cccc4F)nc4c3C(=O)NC4)n2)CC1` here
Output: < 5.70

---

target entity: JAK2 (Invitrogen) kinase (Homo sapiens (Human))
Sequence (O60674 whole entry): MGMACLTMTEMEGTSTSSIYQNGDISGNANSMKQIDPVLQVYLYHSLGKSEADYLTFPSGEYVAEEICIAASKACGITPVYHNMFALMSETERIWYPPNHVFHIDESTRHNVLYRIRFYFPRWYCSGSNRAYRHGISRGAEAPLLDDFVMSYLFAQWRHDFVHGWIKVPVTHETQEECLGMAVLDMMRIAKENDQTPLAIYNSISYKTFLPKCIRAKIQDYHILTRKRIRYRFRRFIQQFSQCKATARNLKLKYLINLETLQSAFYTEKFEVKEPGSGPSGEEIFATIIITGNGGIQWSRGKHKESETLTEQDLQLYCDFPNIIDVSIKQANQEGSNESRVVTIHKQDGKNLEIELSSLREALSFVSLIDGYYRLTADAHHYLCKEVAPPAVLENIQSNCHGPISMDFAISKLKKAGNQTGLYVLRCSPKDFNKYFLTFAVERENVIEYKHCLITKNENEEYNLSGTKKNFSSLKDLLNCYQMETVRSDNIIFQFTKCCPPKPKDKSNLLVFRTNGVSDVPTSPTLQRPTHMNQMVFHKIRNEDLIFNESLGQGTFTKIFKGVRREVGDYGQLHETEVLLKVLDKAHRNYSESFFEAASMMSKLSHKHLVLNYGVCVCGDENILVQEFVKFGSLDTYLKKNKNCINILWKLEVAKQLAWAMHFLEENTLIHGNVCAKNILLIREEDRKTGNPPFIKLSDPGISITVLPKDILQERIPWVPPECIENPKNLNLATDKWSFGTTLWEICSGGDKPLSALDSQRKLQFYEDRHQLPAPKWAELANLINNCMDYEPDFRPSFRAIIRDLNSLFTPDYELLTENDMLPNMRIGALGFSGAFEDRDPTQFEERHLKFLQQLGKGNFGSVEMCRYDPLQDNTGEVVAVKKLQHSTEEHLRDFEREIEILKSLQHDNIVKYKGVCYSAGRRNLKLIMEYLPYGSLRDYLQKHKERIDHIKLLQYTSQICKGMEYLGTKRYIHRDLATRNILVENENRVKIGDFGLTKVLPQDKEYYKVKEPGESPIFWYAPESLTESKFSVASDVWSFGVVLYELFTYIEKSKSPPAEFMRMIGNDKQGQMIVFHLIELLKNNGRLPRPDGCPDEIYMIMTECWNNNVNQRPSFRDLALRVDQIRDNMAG
quantity measured: Ki

Input: Tell me Ki reported for `CO[C@@H]1CN(c2ccn(-c3cc(-c4c(F)cccc4C#N)nc4c3C(=O)NC4)n2)C[C@@H]1O`
Output: 0.1 to 10 nM
